Target: Ephrin type-B receptor 4 (Homo sapiens) (UniProt P54760)
Sequence (P54760 whole entry, looked up): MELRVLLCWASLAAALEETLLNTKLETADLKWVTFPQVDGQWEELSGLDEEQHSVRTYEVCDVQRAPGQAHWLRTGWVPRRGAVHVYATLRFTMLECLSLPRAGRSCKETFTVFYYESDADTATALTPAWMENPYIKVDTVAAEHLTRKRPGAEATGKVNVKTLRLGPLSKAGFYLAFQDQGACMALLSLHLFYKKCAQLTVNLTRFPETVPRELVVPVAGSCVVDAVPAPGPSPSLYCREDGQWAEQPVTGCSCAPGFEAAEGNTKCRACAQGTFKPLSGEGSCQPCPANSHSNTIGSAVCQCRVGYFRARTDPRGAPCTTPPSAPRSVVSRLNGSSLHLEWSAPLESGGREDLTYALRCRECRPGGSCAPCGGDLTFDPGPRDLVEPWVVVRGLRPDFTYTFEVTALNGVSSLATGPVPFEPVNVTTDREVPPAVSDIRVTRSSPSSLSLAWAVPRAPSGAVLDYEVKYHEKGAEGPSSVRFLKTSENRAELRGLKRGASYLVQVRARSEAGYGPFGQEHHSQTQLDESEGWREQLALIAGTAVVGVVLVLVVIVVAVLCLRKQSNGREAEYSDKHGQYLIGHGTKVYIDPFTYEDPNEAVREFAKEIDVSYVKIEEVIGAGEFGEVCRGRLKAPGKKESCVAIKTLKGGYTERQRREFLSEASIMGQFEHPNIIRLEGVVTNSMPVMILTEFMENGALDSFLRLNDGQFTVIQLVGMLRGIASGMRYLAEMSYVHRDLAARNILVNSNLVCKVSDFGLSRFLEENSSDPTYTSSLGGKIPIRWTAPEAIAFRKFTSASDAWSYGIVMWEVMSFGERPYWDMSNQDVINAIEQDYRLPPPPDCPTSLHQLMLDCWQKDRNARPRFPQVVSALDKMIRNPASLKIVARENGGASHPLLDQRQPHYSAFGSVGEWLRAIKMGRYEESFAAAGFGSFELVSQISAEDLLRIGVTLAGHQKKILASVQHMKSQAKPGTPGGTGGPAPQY
Experiment: blockers of EphB4 ligand binding – biochemical, TNYL-RAW peptide probe, fluorescence polarization, primary screen (AID 720);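 further: 0% = DMSO wells and 100% = excess unlabeled TNYL-RAW peptide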
Conditions: EphB4 LBD / TNYL-RAW-Alexa532 peptide, at 7 µM
Among all 97,000 compounds or so, about 140 (0.14%) were called active.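 How the source made its calls: active means inhibition above the screen-wide mean inhibition plus 3 SD (cut at about 15% in these data); inactive means the rest.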 This excerpt belongs to a sample that is enriched for actives.
// classify into class 1 for active, class 0 for inactive

Q. Can you look up the reported call for `CCOC(=O)c1c(NC(=O)/C=C/c2ccco2)sc(C)c1C` for me?
A. class 0

Q. Can you look up the reported call for CCC1CCCCN1C(=O)Nc1cccc(NC(=O)N2CCCCC2CC)c1 (stereo not given) for me?
A. class 1

Q. Can you look up the reported call for `O=c1[nH][nH]c(C(F)(F)F)c1C=NCc1ccccc1Cl` for me?
A. class 0

Q. Can you look up the reported call for `Cc1ccccc1OC(=O)Cn1c(C(F)(F)F)nc2ccccc21` for me?
A. class 0

Q. Can you look up the reported call for `O=C(ON=C1CCN(S(=O)(=O)c2ccccc2)CC1)c1ccc(Cl)cc1` for me?
A. class 0

Q. Can you look up the reported call for `COc1ccc(/C=C(/NC(=O)c2ccc(C)cc2)c2nc3ccccc3[nH]2)cc1OC` for me?
A. class 0

Q. Can you look up the reported call for `O=C(Cc1ccc(S(=O)(=O)N2CCOCC2)s1)NCCC(c1ccccc1)c1ccccc1` for me?
A. class 0

Q. Can you look up the reported call for CC(C)CC(N=C1NC(C)(C)Cc2ccccc21)C(=O)O (stereo not given) for me?
A. class 0

Q. Can you look up the reported call for `O=C(CSCc1ccc([N+](=O)[O-])cc1)NCCSCc1ccccc1` for me?
A. class 0

Q. Can you look up the reported call for `CCOc1cc(NC(=O)c2cnccn2)c(OCC)cc1NC(=O)c1ccc(C)cc1` for me?
A. class 0

Q. Can you look up the reported call for `O=C(Nc1cccc2ccccc12)N1CCN(Cc2ccc3c(c2)OCO3)CC1` for me?
A. class 0

Q. Can you look up the reported call for `Cc1ccc2c(Cl)c(C(=O)NCCCn3ccnc3)sc2c1` for me?
A. class 0

Q. Can you look up the reported call for `N=c1c2c3c(sc2nc2n1CCCCC2)CCCC3` for me?
A. class 0

Q. Can you look up the reported call for CC(C)(C)n1nnnc1C(c1ccc(Cl)cc1)N1CCSCC1 (stereo not given) for me?
A. class 0

Q. Can you look up the reported call for `O=C(c1cc2sccc2n1Cc1ccc(F)cc1)N1CCc2ccccc21` for me?
A. class 0

Q. Can you look up the reported call for `O=C(NCc1ccccc1Cl)c1csc2c1CCCCC2` for me?
A. class 0

Q. Can you look up the reported call for `Cn1c(CO)cnc1SCc1ccccc1` for me?
A. class 0

Q. Can you look up the reported call for `CCOc1cc(C(=O)Nc2c(C)ccc3nsnc23)cc(OCC)c1OCC` for me?
A. class 0

Q. Can you look up the reported call for CC(=O)c1cccc(NC(=O)N2CCCC2C(=O)NCCc2ccccc2)c1 (stereo not given) for me?
A. class 0

Q. Can you look up the reported call for `COc1ccc2c(c1)C(C)=CC(C)(C)N2C(=O)Nc1ccccc1` for me?
A. class 0

Q. Can you look up the reported call for `Cc1ccc(/C=N\n2c(-c3ccccc3)n[nH]c2=S)s1` for me?
A. class 0

Q. Can you look up the reported call for `O=C(Nc1sc2c(c1-c1nc3ccccc3[nH]1)CCCC2)C1CC1` for me?
A. class 0

Q. Can you look up the reported call for `CN(C)CCNC(=O)Nc1cccc(Cl)c1Cl` for me?
A. class 0

Q. Can you look up the reported call for `O=S(=O)(Cc1cc(Sc2ccccc2)nc(-c2ccccc2)n1)c1ccccc1` for me?
A. class 0

Q. Can you look up the reported call for CC(=O)c1cccc(NC(=O)N2CCCC2C(=O)NCCC(C)C)c1 (stereo not given) for me?
A. class 0

Q. Can you look up the reported call for `CCOc1ccc(NC(=O)CCS(=O)(=O)c2ccc3c(c2)CCCN3C(=O)CC)cc1` for me?
A. class 0

Q. Can you look up the reported call for `Cc1ccc(C(=O)c2c(NC(=O)c3ccncc3)sc3c2CCCC3)cc1` for me?
A. class 0

Q. Can you look up the reported call for `CCCc1noc2c1/C(=N\O)CCC2` for me?
A. class 0

Q. Can you look up the reported call for `O=C(COC(=O)c1ccccc1NC(=O)c1ccco1)Nc1ccc2c(c1)OC(F)(F)O2` for me?
A. class 0

Q. Can you look up the reported call for `Nn1c(Cc2cccc3ccccc23)nnc1SCC(=O)N1CC(=O)Nc2ccccc21` for me?
A. class 0

Q. Can you look up the reported call for `O=[N+]([O-])c1ccccc1/C=N/n1c(COc2ccccc2)n[nH]c1=S` for me?
A. class 0

Q. Can you look up the reported call for COc1ccc(NC(=O)NC2CC3CCCC(C2)N3Cc2ccccc2)cc1 (stereo not given) for me?
A. class 0

Q. Can you look up the reported call for `CC(C)Oc1ccc(Oc2ccc(C(F)(F)F)cn2)cc1` for me?
A. class 0

Q. Can you look up the reported call for `COCCN(C(=O)c1ccco1)c1nnc(-c2ccc(OC)cc2)s1` for me?
A. class 0

Q. Can you look up the reported call for `CCc1cccc2c(C=C(C#N)C#N)cn(CC(=O)N3CCCCC3)c12` for me?
A. class 0

Q. Can you look up the reported call for `CCOc1ccc(NC(=O)CN(C)CC(=O)Nc2cccc(Cl)c2C)cc1OCC` for me?
A. class 0

Q. Can you look up the reported call for `NC(=O)C1(N2CCCCC2)CCN(C(=S)Nc2ccc(Cl)cc2)CC1` for me?
A. class 0

Q. Can you look up the reported call for CCOC(=O)C1=C(c2ccccc2)N=C2SCC(=O)N2C1c1ccc(O)c(OC)c1 (stereo not given) for me?
A. class 0

Q. Can you look up the reported call for `O=C(N/N=C\c1cccc(Br)c1)c1ccccc1-n1cccc1` for me?
A. class 0

Q. Can you look up the reported call for `Clc1ccc(COn2c(-c3ccc(Cl)cc3Cl)nc3ncccc32)cc1` for me?
A. class 0

Q. Can you look up the reported call for `O=C(N/N=C/c1ccc(O)cc1)/C(=C/c1ccc([N+](=O)[O-])cc1)NC(=O)c1ccccc1` for me?
A. class 0

Q. Can you look up the reported call for `Cc1cccc(C)c1NC(=O)CCS(=O)(=O)c1cccc2nsnc12` for me?
A. class 0

Q. Can you look up the reported call for `Cc1ccc(SCC(=O)NC(=O)NCc2ccco2)c(C)c1` for me?
A. class 0

Q. Can you look up the reported call for `O=C(NC1CC1)c1ccc2c(c1)NC(=O)c1ccccc1S2` for me?
A. class 0

Q. Can you look up the reported call for `O=C(Nc1cccc(NC(=O)c2ccco2)c1)c1cnccn1` for me?
A. class 0

Measured values drawn from PubChem BioAssay AID720 for this set.
